Target: T1, BoNT/F1 (proteolytic BoNT/F) (Clostridium botulinum, UniProt A7GBG3 1-1278)
T1 sequence: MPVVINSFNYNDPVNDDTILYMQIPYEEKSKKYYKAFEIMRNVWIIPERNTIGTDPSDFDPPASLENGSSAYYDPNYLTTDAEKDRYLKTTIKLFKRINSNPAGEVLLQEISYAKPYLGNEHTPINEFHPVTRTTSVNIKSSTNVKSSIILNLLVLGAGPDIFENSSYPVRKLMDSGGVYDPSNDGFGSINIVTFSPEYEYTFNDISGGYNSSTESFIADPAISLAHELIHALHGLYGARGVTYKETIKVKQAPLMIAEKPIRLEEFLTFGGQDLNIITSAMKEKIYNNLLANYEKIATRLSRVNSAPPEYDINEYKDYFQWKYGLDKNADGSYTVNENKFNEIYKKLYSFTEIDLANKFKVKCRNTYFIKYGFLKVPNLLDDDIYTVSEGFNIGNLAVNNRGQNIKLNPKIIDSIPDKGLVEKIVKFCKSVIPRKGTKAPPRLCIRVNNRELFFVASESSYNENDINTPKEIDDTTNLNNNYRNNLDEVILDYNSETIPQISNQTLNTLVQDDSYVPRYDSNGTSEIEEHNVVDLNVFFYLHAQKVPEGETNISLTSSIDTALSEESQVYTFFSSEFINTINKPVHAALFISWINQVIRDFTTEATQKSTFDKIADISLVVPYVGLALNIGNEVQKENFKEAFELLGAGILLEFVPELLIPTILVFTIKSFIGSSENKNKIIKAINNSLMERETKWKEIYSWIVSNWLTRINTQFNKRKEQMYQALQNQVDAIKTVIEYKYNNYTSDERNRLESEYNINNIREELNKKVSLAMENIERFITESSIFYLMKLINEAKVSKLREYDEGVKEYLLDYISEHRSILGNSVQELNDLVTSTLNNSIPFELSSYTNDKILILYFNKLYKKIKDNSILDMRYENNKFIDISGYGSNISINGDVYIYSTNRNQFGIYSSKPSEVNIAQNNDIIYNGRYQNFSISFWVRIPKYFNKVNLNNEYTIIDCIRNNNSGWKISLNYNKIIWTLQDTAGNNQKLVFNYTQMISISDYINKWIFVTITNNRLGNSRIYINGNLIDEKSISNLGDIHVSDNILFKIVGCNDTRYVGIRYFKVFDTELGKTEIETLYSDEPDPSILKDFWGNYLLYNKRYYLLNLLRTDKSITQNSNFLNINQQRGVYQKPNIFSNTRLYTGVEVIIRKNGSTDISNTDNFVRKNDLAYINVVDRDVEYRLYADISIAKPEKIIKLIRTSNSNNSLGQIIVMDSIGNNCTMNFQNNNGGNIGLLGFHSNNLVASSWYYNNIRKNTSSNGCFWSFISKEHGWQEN
Test: IgG
# maps each entry to its Kd
# value in nM; strip the unit string

Before answering, review these 4 worked examples.
6F5 IgG (antibody, V domains shown) VH: EVQLVQSGGNLVQPGGSLRLSCAATGPIGSHWMTWVRQAPGQGLEWVANINLDGTEKFYVDSVKGRFTVSRDNRKSSVFLQMNNLRVDDTAVYYCARLQWGGYNGWLSPWGQGTLVTVSS VL: DIEMTQSPPSLSASVGDRVSLTCRASEYIGTSLNWYQQKPGKAPKLLIYAASALHSGVPSRFSGSGSGTDFTLTISGLQPEDFATYYCQQANDLPLTFGGGTKLEIK = 0.66
6F9 IgG (antibody, V domains shown, IgG from scFv V genes) VH: QVQLQQPGAELVKPGASVKLSCKASGNSFASSWMHWVKQRPGQGLEWIGMIHPYSGSTNFNEKFKSKATLSVDKSSSTAYMQLSSLTSEDSAVYYCAMNWDWYFDVWGTGTTVTVSA VL: DVVMTQSPKFMSTSVGDRVSITCKASQDVGTAVAWYQQKPGQSPKLLIYWASTRHTGVPDRFTGSGSGTDFTLTISDVLSEDLADYFCQQYGGYPTFGGGTKLEIK = 0.26
6F6 IgG (antibody, V domains shown, IgG from scFv V genes) VH: EVQLLESGGGLVKPGGSRKLSCEASGFTFSDYGMHWVRQAPEKGLEWVGYISSGSRIIYYADTVKGRITISRDNAKNTLFLQMTSLRSEDTAMYYCVRGTWVFDYWGQGTTLTVSS VL: DIVMTQSPASLAVSLGQRATISCRASESVDNYGISFMNWFQQKPGQPPKLLIYAASNLESGIPARFSGSGSGTDFTLTINPVEADDVATYYCQQSNEDPYTFGGGTKLEIK = 0.048
6F10 IgG (antibody, V domains shown, IgG from scFv V genes) VH: EVQLQESGGDLVKPGGSLKLSCAASGFTFSYYGMSWVRQTPDKRLEWVATISSGGTYTYYPDSVKGRFTISRDNAKNTLYLQMSSLSSEDTAMYYCARRRSYDSVYWYFDVWGAGTSVTVSS VL: DIVLTQSPAITAASLGQKVTITCSASSSGSYIHWYQQKSGTSPKLLIYRTSNLASGVPSRFSGSGSGTFYSLTISSVEAEDAADYFCHQWSSYPTFGGGTKLEIK = 0.07

# next binder below
Param item = 6F4 IgG (antibody, V domains shown, IgG from scFv V genes) VH: EVQLQESGPELVKPGASVKISCKTSGYTFTDYYMNWVKQSHGKSLEWIGDINPNNGGATYNQKFKGKATLTVDKSSRTLYMELRSLTSEDSAVYHCACGPYFFDFWGQGTTLTVSS VL: QIVLTQSPATMSASPGEKVTITCSASSSVNYMHWYQQKPGSSPKLWIYDTSSLAPGVPARFSGSGSGTSYSLTISSMEAEDAASYFCHQWSSYPYTFGGGTKLEIK ; retrieve measured Kd.
1.17
